- assay: in vitro
- experimentalSetup: human, hela cells, % viability
propertyMeasured: viability at 28.5 h, 10 µM (%)
Kindly answer with a numeric value in %, unit omitted.

C[C@H](Oc1cncc(N2CCNCC2)n1)c1ccccc1Cl [CBK172341G] = 108
NC(=O)CN1CC2(CCN(C(=O)OCc3ccccc3)CC2)c2ccccc21 = 94.4
CN(CCc1ccccn1)C(=O)C1CN(C(=O)C2CC23CCC3)C1 (centres unmarked) = 104

q: If you can, please state the reported viability at 28.5 h, 10 µM value of `O=C(c1cccc(Br)c1)N1CCN(S(=O)(=O)N2CCOCC2)CC1` .
a: 93.2

q: Quick one: viability at 28.5 h, 10 µM of `Cn1nccc1C(=O)N1CCN(c2ncccn2)CC1` ?
a: 90.7

q: Sample `O=C(CCn1c(-c2cccnc2)cc2cccnc21)NC1CCCCC1` — what was its viability at 28.5 h, 10 µM?
a: 85.8

q: Returns the measured viability at 28.5 h, 10 µM for the input compound. Input: COc1ccccc1CCCN1CCC2(C1)c1[nH]c3ccccc3c1CCN2S(C)(=O)=O (centres unmarked)
a: 113

q: I'd like to know its viability at 28.5 h, 10 µM. The compound in question is CC(C)N(CC(=O)N(c1ccccc1)c1ccccc1)C(C)C [CBK013303C]
a: 96.6

Each recorded value in this set is attributed to paper PMC12040169.
